- Target desc: glutathione-S-transferase (GST) tagged LXRbeta LBD (ligand binding domain) (Homo sapiens)
- Construct: purchased Invitrogen pv4658.pps
- Experiment: LanthaScreen TR-FRET Liver X Receptor Coactivator Assay, co-activator recruitment to LXRbeta LBD
- Type: biochemical
- Run conditions: efficacy at max dose, in relation to reference dual agonist T0901317; read-out: LXR beta Activity @ max dose (%)
Quantity name: Emax (%)
// return numeric value only (unit: %, not printed)

Example molecules with recorded Emax:
CN(C)CCNC(=O)c1ccc(N2CCC(CC3CCN(C(=O)[C@](O)(c4ccccc4)C(F)(F)F)CC3)CC2)cc1Cl | 64
CN(C)C(=O)c1ccc(N2[C@@H]3CC[C@H]2CN(CC2CCN(C(=O)[C@](O)(c4ccccc4)C(F)(F)F)CC2)C3)cc1Cl | 37

Kindly note the recorded Emax for CCOc1cccc([C@@](O)(C(=O)N2CCC(C)(CC3CCN(c4ccc(C(=O)N(C)C)c(Cl)c4)CC3)CC2)C(F)(F)F)c1 , which is 29

O=C(c1ccc(N2CCC(CC3CCN(C(=O)[C@](O)(c4cc(Cl)cc(Cl)c4)C(F)(F)F)CC3)CC2)cc1Cl)N1CCC[C@@H]1CO yielded Emax of 30

---

// pEC50 lookup, one value per entry
- Target desc: glutathione-S-transferase (GST) tagged LXRbeta LBD (ligand binding domain) (Homo sapiens, UniProt P55055)
- Construct: purchased Invitrogen pv4658.pps
- Sequence (P55055 222-460 limits assumed): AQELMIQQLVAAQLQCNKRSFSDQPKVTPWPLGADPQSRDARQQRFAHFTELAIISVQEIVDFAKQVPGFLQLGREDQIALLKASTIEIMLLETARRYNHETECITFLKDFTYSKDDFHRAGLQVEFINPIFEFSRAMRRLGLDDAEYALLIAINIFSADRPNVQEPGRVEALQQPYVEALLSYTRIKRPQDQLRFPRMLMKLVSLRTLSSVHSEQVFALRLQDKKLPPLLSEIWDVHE
- Experiment: LanthaScreen TR-FRET Liver X Receptor Coactivator Assay, co-activator recruitment to LXRbeta LBD
- Assay type: biochemical
- Run conditions: potency (Inflection Point, IP), co-activator recruitment to LXRbeta LBD, in relation to T0901317; read-out: LXR beta IP
In textbook form, pEC50 equals minus log to base ten of the concentration in mol/L.

Previously resolved entries follow.
CN(C)C(=O)c1ccc(N2CCC(CC3CCN(C(=O)C(O)(c4ccsc4)C(F)(F)F)CC3)CC2)cc1Cl (stereo not shown) [Example 2-30] | 7.44
CN(C)C(=O)c1ccc(N2CCC(CC3CCN(C(=O)[C@@](O)(c4ccccc4F)C(F)(F)F)CC3)CC2)nc1Cl [Example 7-71] | 7.26
CN(C)C(=O)c1ccc(N2CCC(CC3CCN(C(=O)[C@](O)(c4cccc(Br)c4)C(F)(F)F)CC3)CC2)nc1Cl [Example 7-67] | 8.40

Form: molecule = CCOc1cccc([C@@](O)(C(=O)N2CCC(CC3CCN(c4ccc(C(=O)NC)c(Cl)n4)CC3)CC2)C(F)(F)F)c1 [Example 7-137] ; pEC50 = 7.64

---

Catalogue of compounds with associated EC50
- Target desc: glutathione-S-transferase (GST) tagged LXRalpha LBD (ligand binding domain) (Homo sapiens)
- Construct: purchased Invitrogen pv4655
- Sequence (Q13133 209-447 limits assumed): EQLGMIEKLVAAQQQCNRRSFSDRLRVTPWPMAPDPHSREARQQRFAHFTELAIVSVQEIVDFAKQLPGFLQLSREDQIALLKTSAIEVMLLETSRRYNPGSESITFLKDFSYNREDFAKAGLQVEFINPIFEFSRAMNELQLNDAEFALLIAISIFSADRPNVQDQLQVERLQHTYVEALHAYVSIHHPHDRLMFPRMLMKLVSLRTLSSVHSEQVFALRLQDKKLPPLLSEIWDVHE
- Experiment: LanthaScreen TR-FRET Liver X Receptor Coactivator Assay, co-activator recruitment to LXRalpha LBD
- Format: biochemical
- Run conditions: potency (Inflection Point, IP), co-activator recruitment to LXRalpha LBD, in relation to T0901317; read-out: LXR alpha IP
Express your answer in nM, writing the number without its unit.

Cc1cc(N2CCC(CC3CCN(C(=O)[C@](O)(c4ccccc4)C(F)(F)F)CC3)CC2)ccc1C(=O)N(C)C [Example 2-155] | 386
CN(C)C(=O)c1ccc(N2CCC(CC3CCN(C(=O)[C@](O)(c4ccccc4)C(F)(F)C(F)(F)F)CC3)CC2)nc1Cl [Example 7-60] | 148
Cc1cc(N2CCC(CC3CN(C(=O)[C@](O)(c4cc(F)cc(Cl)c4)C(F)(F)F)C3)CC2)ccc1C(=O)N(C)C [Example 2-81] | 798
CN(C)C(=O)c1ccc(N2CCC(OC3CCN(C(=O)C(O)(c4cccc(Cl)c4)C(F)(F)F)CC3)CC2)cc1Cl (stereo not shown) [Example 2-24] | 465
CN(C)C(=O)c1ccc(N2CCC(CC3CCN(C(=O)C4(c5ccccc5F)CCCC4)CC3)CC2)nc1Cl [Example 7-65] | 658
CN(Cc1ccon1)C(=O)c1ccc(N2CCC(CC3CCN(C(=O)[C@](O)(c4ccccc4)C(F)(F)F)CC3)CC2)cc1Cl [Example 4-10] | 246

Item: CN(C)C(=O)c1ccc(N2CCC(CC3CCN(C(=O)[C@](O)(c4cc(F)cc(F)c4)C(F)(F)F)CC3)CC2)cc1Cl [Example 2-94] | EC50: 50

---

- Target desc: glutathione-S-transferase (GST) tagged LXRalpha LBD (ligand binding domain) (Homo sapiens)
- Construct: purchased Invitrogen pv4655
- Experiment: LanthaScreen TR-FRET Liver X Receptor Coactivator Assay, co-activator recruitment to LXRalpha LBD
- Format: biochemical
- Run conditions: potency (Inflection Point, IP), co-activator recruitment to LXRalpha LBD, in relation to T0901317; read-out: LXR alpha IP
Quantity name: pEC50
Expect pEC50 as a plain number equal to -log10 of the molar concentration.

See these solved cases before continuing.
CNC(=O)c1ccc(N2CCC(CC3CCN(C(=O)[C@](O)(c4cccc(C)c4)C(F)(F)F)CC3)CC2)nc1Cl | 6.92
CC(C)C(O)(C(=O)N1CCC(CC2CCN(c3ccc(C(=O)N(C)C)c(Cl)n3)CC2)CC1)C(F)(F)F (centres unmarked) | 5.57
CN(C)C(=O)c1ccc(N2CCC(CC3CCN(C(=O)[C@](O)(c4cccc(OC(F)F)c4)C(F)(F)F)CC3)CC2)nc1Cl | 6.60
Cc1cc(N2CCC(CC3(C)CCN(C(=O)[C@](O)(c4cc(F)cc(Cl)c4)C(F)(F)F)CC3)CC2)ccc1C(=O)N(C)C | 6.78
Cc1cc(N2CCC(CC3CCN(C(=O)[C@](O)(c4ccccc4)C(F)(F)F)CC3)CC2)ncc1C(=O)N(C)C | 5.66
COc1cccc([C@@](O)(C(=O)N2CCC(OC3CCN(c4ccc(C(=O)N(C)C)c(OC)n4)CC3)CC2)C(F)(F)F)c1 | 5.53
CN(C)C(=O)c1ccc(N2CCC(CC3CCN(C(=O)C(O)(Cc4ccccc4)C(F)(F)F)CC3)CC2)cc1Cl (centres unmarked) | 5.97
CC(C)C(O)(C(=O)N1CCC(CC2CCN(c3ccc(C(=O)N(C)C)c(Cl)c3)CC2)CC1)C(F)(F)F (centres unmarked) | 5.35
Cc1ccsc1C(O)(C(=O)N1CCC(CC2CCN(c3ccc(C(=O)N(C)C)c(Cl)c3)CC2)CC1)C(F)(F)F (centres unmarked) | 6.24
CN(C)C(=O)c1ccc(N2CCC(CC3CCN(C(=O)[C@](O)(c4cccc(OC(F)(F)F)c4)C(F)(F)F)CC3)CC2)cc1Cl | 6.70

Now let's try a different one.
Lookup result for CN(C)C(=O)c1ccc(N2CCC(CC3CCN(C(=O)C(O)(c4cc(F)cc(F)c4)C(F)(F)F)CC3)CC2)cc1 (centres unmarked) ; measured pEC50: 6.90

---

- Target desc: glutathione-S-transferase (GST) tagged LXRalpha LBD (ligand binding domain) (Homo sapiens)
- Construct: purchased Invitrogen pv4655
- Experiment: LanthaScreen TR-FRET Liver X Receptor Coactivator Assay, co-activator recruitment to LXRalpha LBD
- Type: biochemical
- Run conditions: efficacy at max dose, in relation to reference dual agonist T0901317; read-out: LXR alpha Activity @ max dose (%)
Hi! Could you tag entries with Emax below 20% as y, and those at or above as n? Much appreciated.

CO[C@](C(=O)N1CCC(OC2CCN(c3ccc(C(=O)N(C)C)c(Cl)c3)CC2)CC1)(c1ccccc1)C(F)(F)F | y
CNC(=O)c1ccc(N2CCC(OC3CCN(C(=O)C(O)(c4cccc(OC)c4)C(F)(F)F)CC3)CC2)cc1Cl (stereo not shown) | y
O=C(c1ccc(N2CCC(CC3CCN(C(=O)[C@](O)(c4ccccc4)C(F)(F)F)CC3)CC2)cc1Cl)N1CCC[C@H]1CO | n

stdin: Answer whether the molecule CC(C)c1cccc([C@@](O)(C(=O)N2CCC(CC3CCN(c4ccc(C(=O)N(C)C)c(Cl)c4)CC3)CC2)C(F)(F)F)c1 has Emax strictly less than 20%
stdout: y

stdin: Does the reported Emax of the following molecule sit strictly below 20%? COc1cccc([C@@](O)(C(=O)N2CCC(CC3CCN(c4cnc(C(=O)N(C)C)c(C)c4)CC3)CC2)C(F)(F)F)c1
stdout: y

stdin: Would you kindly verify if Emax of CN(C)C(=O)c1ccc(N2CCC(CC3CCN(C(=O)C(O)(c4cc(F)cc(F)c4)C(F)(F)F)CC3)CC2)cc1 (stereo not shown) is strictly less than 20%?
stdout: n

stdin: Check if Emax falls below 20% for CNC(=O)c1ccc(N2CCC(CC3CN(C(=O)[C@](O)(c4cccc(OC)c4)C(F)(F)F)C3)CC2)cc1Cl .
stdout: y

---

- Target desc: glutathione-S-transferase (GST) tagged LXRalpha LBD (ligand binding domain) (Homo sapiens)
- Construct: purchased Invitrogen pv4655
- Experiment: LanthaScreen TR-FRET Liver X Receptor Coactivator Assay, co-activator recruitment to LXRalpha LBD
- Assay type: biochemical
- Run conditions: efficacy at max dose, in relation to reference dual agonist T0901317
Classify by measured LXR alpha Activity @ max dose (%): yes (1) if it is equal to or exceeds 7%, no (0) if it is smaller.

Some solved cases for reference:
CN(C)C(=O)c1ccc(N2CCC(CC3CCN(C(=O)[C@](O)(c4cccc(Cl)c4)C(F)(F)F)CC3)CC2)cc1 | yes (1)
CN(C)C(=O)c1ccc(N2CCC(CC3CCN(C(=O)[C@](O)(c4cc(Cl)cc(Cl)c4)C(F)(F)F)CC3)CC2)cc1 | no (0)
COc1cccc([C@@](O)(C(=O)N2CCC(CC3CCN(c4ccc(C(=O)N(C)C)c(Cl)n4)CC3)CC2)C(F)(F)F)c1 | yes (1)
COc1cccc([C@@](O)(C(=O)N2CCC(CC3CCN(c4ccc(C(=O)N(C)C)c(C)n4)CC3)CC2)C(F)(F)F)c1 | no (0)
CN(C)C(=O)c1ccc(N2CCC(CC3CCN(C(=O)[C@](O)(c4ccccc4)C(F)(F)C(F)(F)F)CC3)CC2)cc1Cl [Example 2-14] | yes (1)

stdin: # check: LXR alpha Activity @ max dose (%) of CN(C)C(=O)c1ccc(N2CCC(CC3CCN(C(=O)[C@](O)(c4ccccc4)C(F)(F)C(F)(F)F)CC3)CC2)cc1Cl [Example 2-13] is greater than or equal to 7%
stdout: yes (1)

stdin: Say whether CNC(=O)c1ccc(N2CCC(CC3CCN(C(=O)[C@](O)(c4ccccc4)C(F)(F)F)CC3)CC2)cc1Cl shows LXR alpha Activity @ max dose (%) of 7% or more.
stdout: yes (1)

stdin: Say whether CN(C)C(=O)c1ccc(N2CCC(CC3CCN(C(=O)[C@](O)(c4cc(Cl)cc(Cl)c4)C(F)(F)F)CC3)CC2)nc1Cl [Example 7-104] shows LXR alpha Activity @ max dose (%) of 7% or more.
stdout: no (0)

stdin: Form field: LXR alpha Activity @ max dose (%) at least 7%? Entry: CN(C)C(=O)c1ccc(N2CCC(CC3CN(C(=O)[C@](O)(c4cccc(OC(F)(F)F)c4)C(F)(F)F)C3)CC2)cc1Cl
stdout: yes (1)

stdin: Evaluate CN(C)C(=O)c1ccc(N2CCC(OC3CCN(C(=O)[C@](O)(c4ccccc4)C(F)(F)F)CC3)CC2)cc1Cl [Example 2-11] : LXR alpha Activity @ max dose (%) at minimum 7%?
stdout: yes (1)

stdin: Identify whether the reported LXR alpha Activity @ max dose (%) of the following compound is 7% or greater: CN(C)C(=O)c1ccc(N2CCC(OC3CCN(C(=O)[C@](O)(c4ccccc4)C(F)(F)F)CC3)CC2)cc1Cl [Example 2-21]
stdout: no (0)

stdin: Entry CN(C)C(=O)c1ccc(N2CCC(CC3CCN(C(=O)[C@](O)(c4ccccc4)C(F)(F)F)CC3)CC2)cc1Cl : is its LXR alpha Activity @ max dose (%) no less than 7%?
stdout: yes (1)

stdin: # bool: LXR alpha Activity @ max dose (%) of CN(C)C(=O)c1ccc(N2CCC(CC3CCN(C(=O)[C@](O)(c4cc(Cl)cc(Cl)c4)C(F)(F)F)CC3)CC2)nc1Cl [Example 7-93] >= 7%
stdout: no (0)
